biological target: chimeric human/mouse GPR119 (Homo sapiens, UniProt Q8TDV5, A235T/C313R/C323Y/E253K/F304I/F307L/G211A/G245S/H255C/K284R/L224V/L258Q/L288Q/L301F/P218V/P318T/Q252H/R262K/S214P/S219N/S228A/S309P/S322A/T217S/T239S/V227I/V300F); construct: the first 198 amino acids of human GPR119; the C-terminal 137 amino acids of the mouse receptor; expressed in transfected cells; test: Tet-inducible cAMP assay (cAMP accumulation, HTRF); assay type: cell-based; conditions: Flp-In-T-Rex-HEK293 cells, tetracycline-induced receptor expression; cAMP accumulation after 50 min at 37° C.; read-out: GPR119 EC50
Sequence (Q8TDV5 with tags, fused parts or gaps with the stated changes): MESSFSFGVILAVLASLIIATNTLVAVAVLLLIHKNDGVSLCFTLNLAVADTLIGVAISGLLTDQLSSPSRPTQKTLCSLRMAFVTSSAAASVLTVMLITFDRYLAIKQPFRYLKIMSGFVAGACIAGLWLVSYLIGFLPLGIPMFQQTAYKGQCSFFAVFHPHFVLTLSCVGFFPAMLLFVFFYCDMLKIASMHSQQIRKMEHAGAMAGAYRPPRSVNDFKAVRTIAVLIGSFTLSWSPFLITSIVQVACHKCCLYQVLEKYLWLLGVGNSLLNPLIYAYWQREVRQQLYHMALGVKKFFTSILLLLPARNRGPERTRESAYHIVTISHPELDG
Please provide measured log10(EC50) for the entries that follow.
The common logarithm of EC50 in nM is what is listed.

IN: Quick one: log10(EC50) for CCCS(=O)(=O)N1CCC(C2Cc3cc(C4=CCN(S(C)(=O)=O)CC4)ccc3O2)CC1 (centres unmarked) ?
OUT: 3.39

IN: Could you do the same for CCCS(=O)(=O)N1CC=C(c2ccc3c(c2)CC(C2CCN(c4ccc(Cl)cn4)CC2)O3)CC1 (centres unmarked) , please?
OUT: 1.92

IN: Also check CC1(C2CCN(c3ncc(C4CC4)cn3)CC2)Cc2cc(C3=CCN(S(=O)(=O)CCCCO)CC3)ccc2O1 (centres unmarked)
OUT: 0.95

IN: Moving on to the next molecule: CC(C)CS(=O)(=O)N1CC=C(c2cc(F)c3c(c2)CC(C2CCN(c4ncc(Cl)cn4)CC2)O3)CC1 (centres unmarked)
OUT: 0.53

IN: Here is the next molecule: CCCS(=O)(=O)N1CC=C(c2cc(F)c3c(c2)CC(C2CCN(c4ncc(Cl)cn4)CC2)O3)CC1 (centres unmarked)
OUT: 0.49

###

molecular target: chimeric human/mouse GPR119 (Homo sapiens, UniProt Q8TDV5, A235T/C313R/C323Y/E253K/F304I/F307L/G211A/G245S/H255C/K284R/L224V/L258Q/L288Q/L301F/P218V/P318T/Q252H/R262K/S214P/S219N/S228A/S309P/S322A/T217S/T239S/V227I/V300F); construct: the first 198 amino acids of human GPR119; the C-terminal 137 amino acids of the mouse receptor; expressed in transfected cells; assay: Tet-inducible cAMP assay (cAMP accumulation, HTRF); assay type: cell-based
metricName: EC50 (nM)
Answer in nM, number only, no unit symbol.

IN: Can you look up the measured EC50 of CCCc1cnc(N2CCC(C3Cc4cc(N5CCN(S(=O)(=O)CCC)CC5)ccc4O3)CC2)nc1 (stereo not shown) for me?
OUT: 1060

IN: Now consider CCCS(=O)(=O)N1CC=C(c2ccc3c(c2)CC(C2CCN(C(=O)OC4CCCCC4)CC2)O3)CC1 (stereo not shown) and answer again.
OUT: 9.7

IN: Likewise for CCCc1cnc(N2CCC(C3Cc4cc(C5=CCN(S(=O)(=O)CCC)CC5)cc(F)c4O3)CC2)nc1 (racemic) ?
OUT: 61.8

IN: What do you get for CCCc1cnc(N2CCC(C3Cc4cc(C5=CCN(S(=O)(=O)CCCCO)CC5)cc(F)c4O3)CC2)nc1 (stereo not shown) ?
OUT: 168
